Tested on: HCT-116
Test: Ratio of GI50 to EC50 for HCT116 cells
Assay type: functional, Homo sapiens
Listed next: entries and their corresponding Ratio GI50/EC50.

# MOLECULE, Ratio GI50/EC50
measured = [
    ("COc1cc(Cl)ccc1C1CC(c2c(O)cc(C)oc2=O)=NCCS1 (stereo unspecified)", 1),
    ("COc1cc(SC)ccc1C1CC(c2c(O)cc(C)oc2=O)=NCCS1 (stereo unspecified)", 0.8),
    ("COc1ccc(C2CC(c3c(O)cc(C)oc3=O)=NCCS2)c(OC)c1 (stereo unspecified)", 0.4),
    ("Cc1ccc(C2CC(c3c(O)cc(C)oc3=O)=NCCS2)cc1 (stereo unspecified)", 1.3),
    ("COc1cc(N(C)C)ccc1C1CC(c2c(O)cc(C)oc2=O)=NCCS1 (stereo unspecified)", 0.9),
    ("COc1ccc(C2CC(c3c(O)cc(C)oc3=O)=NCCS2)cc1OC (stereo unspecified)", 0.7),
]
